Taken from PubChem BioAssay (NCI).

- Tested on: CAKI-1 renal
- Experiment Description: NCI-60 one-dose screen, 48 h
- Conditions: 10 µM unless noted
This is part of a sample that, as a whole, favours compounds with a hit. Of some 83,000 tested, about 20% had one in any assay. Calls of active or inactive are those of the source. The calls were made as follows: active = growth percent below 10; inactive = the rest.
Please reply with one of these outcomes: 1 (yes) = active, 0 (no) = inactive

Molecule | Group Label
CCCCN1C(=O)/C(=c2\sc3n(c2=O)C2C(NN=3)N(CC)C(=O)N2CC)c2ccccc21 (centres undefined) | 0 (no)
O=Cc1ccc([N+](=O)[O-])s1 | 0 (no)
O=C1c2c(c3c4ccc(Br)cc4oc3c3[nH]c4ccccc4c23)C(=O)N1O | 0 (no)
COCCn1c(-c2csc(-c3cn(C)c4ccc(OC)cc34)n2)cc2cccnc21 | 0 (no)
CCN(CC)c1nc(SCc2ccccc2Cl)ncc1C | 0 (no)

Req: Per the records of this test, what outcome belongs to N#Cc1c(NC(=O)c2ccccc2)sc2c1CCC(=O)C2 ?
Resp: 1 (yes)
